SYSTEM UNDER TEST: MMP-2 (Homo sapiens, UniProt P08253)
Construct: purchased Calbiochem
Sequence (P08253 110-660): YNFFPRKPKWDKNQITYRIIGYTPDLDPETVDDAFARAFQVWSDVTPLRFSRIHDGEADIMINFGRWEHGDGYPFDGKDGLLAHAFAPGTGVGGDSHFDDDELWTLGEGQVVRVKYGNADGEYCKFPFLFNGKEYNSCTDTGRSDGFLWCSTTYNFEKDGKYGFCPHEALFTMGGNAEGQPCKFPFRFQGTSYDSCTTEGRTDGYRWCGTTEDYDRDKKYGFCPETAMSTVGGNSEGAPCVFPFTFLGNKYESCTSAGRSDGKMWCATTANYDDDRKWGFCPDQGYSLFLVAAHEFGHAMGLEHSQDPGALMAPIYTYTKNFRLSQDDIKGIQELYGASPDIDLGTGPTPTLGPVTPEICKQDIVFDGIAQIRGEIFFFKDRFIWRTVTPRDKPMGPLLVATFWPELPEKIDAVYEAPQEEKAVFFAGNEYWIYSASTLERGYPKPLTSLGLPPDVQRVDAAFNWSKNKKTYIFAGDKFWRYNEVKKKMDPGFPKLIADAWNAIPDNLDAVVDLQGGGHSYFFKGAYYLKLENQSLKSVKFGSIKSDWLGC
PROTOCOL: Cleavage test with MMP-2, cleavage products examined by HPLC
Assay type: biochemical
RUN PARAMETERS: with MMP-2 inhibitor I
Primed or numbered codes have the meaning given here. Where no end group is shown, it is not given here. The star is where a group is joined. FITC = O=C1OC2(c3ccc(O)cc3Oc3cc(O)ccc32)c2ccc(NC(=S)*)cc21; DOTA = O=C(O)CN1CCN(CC(=O)O)CCN(CC(=O)*)CCN(CC(=O)O)CC1; FITC′ = fluorescent dye, fluorescein isothiocyanate
PROPERTY MEASURED: cleavage of the compound by MMP-2 in presence of the inhibitor (HPLC)

INSERT INTO measurements (substance, meas_value) VALUES
  ('K-(GdDOTA)-GG-K(FITC)-RRRR-G-PLGLA-G-RRRR-K(FITC)-GG-K(GdDOTA) (K(DOTA)GGK(FITC′)RRRRGPLGLAGRRRRK(FITC′)GGK(DOTA)-NH2; also: DOTA groups complexed with Gd (GdDOTA)) [V5A]', 'prevented'),
  ('K(DOTA)-G-PLGLA-GGPKKKRKVRRRR-K(FITC)-GG-K(DOTA) (K(DOTA)GPLGLAGGPKKKRKVRRRRK(FITC)GGK(DOTA)) [V4]', 'prevented'),
  ('PKKKRKV-K(FITC)-GG-K(GdDOTA)-PLGVR-K(GdDOTA) (PKKKRKVKGGKPLGVRK; not fully specified) [V2A]', 'prevented');

====

SYSTEM UNDER TEST: MMP-2 (Homo sapiens)
Construct: purchased Calbiochem
Sequence (P08253 110-660): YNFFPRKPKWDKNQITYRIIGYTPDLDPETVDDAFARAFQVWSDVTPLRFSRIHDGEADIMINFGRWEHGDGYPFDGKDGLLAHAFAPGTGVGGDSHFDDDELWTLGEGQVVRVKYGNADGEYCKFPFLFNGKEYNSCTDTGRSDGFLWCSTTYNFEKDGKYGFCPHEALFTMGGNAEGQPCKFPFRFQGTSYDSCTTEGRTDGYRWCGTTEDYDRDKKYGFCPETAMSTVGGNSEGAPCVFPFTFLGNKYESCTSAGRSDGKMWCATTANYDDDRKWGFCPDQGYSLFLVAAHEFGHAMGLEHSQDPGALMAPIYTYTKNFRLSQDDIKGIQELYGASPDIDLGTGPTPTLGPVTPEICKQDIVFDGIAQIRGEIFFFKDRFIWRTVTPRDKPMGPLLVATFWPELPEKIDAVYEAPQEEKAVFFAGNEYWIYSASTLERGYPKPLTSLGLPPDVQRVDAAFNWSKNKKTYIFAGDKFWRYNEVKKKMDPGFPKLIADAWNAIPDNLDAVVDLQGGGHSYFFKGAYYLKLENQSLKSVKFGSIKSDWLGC
PROTOCOL: Cleavage test with MMP-2, cleavage products examined by HPLC
Format: biochemical
RUN PARAMETERS: with MMP-2 inhibitor I
Primed or numbered codes have the meaning given here. Where no end group is shown, it is not given here. The star is where a group is joined. FITC = O=C1OC2(c3ccc(O)cc3Oc3cc(O)ccc32)c2ccc(NC(=S)*)cc21; DOTA = O=C(O)CN1CCN(CC(=O)O)CCN(CC(=O)*)CCN(CC(=O)O)CC1; FITC′ = fluorescent dye, fluorescein isothiocyanate
PROPERTY MEASURED: cleavage of the compound by MMP-2 in presence of the inhibitor (HPLC)

INSERT INTO results (substance, meas_value) VALUES
  ('K(DOTA)-GG-K(FITC)-RRRR-G-PLGLA-G-RRRR-K(FITC)-GG-K(DOTA) (K(DOTA)GGK(FITC)RRRRGPLGLAGRRRRK(FITC)GGK(DOTA)) [V5]', 'prevented'),
  ('K-(GdDOTA)-G-PLGLA-GG-PKKKRKVRRRR-K(FITC)-GG-K(GdDOTA) (K(DOTA)GPLGLAGGPKKKRKVRRRRK(FITC′)GGK(DOTA)-NH2; also: DOTA groups complexed with Gd (GdDOTA)) [V4A]', 'prevented'),
  ('PKKKRKV-K(FITC)-GG-K(DOTA)-PLGVR-K(DOTA) (PKKKRKVKGGKPLGVRK) [V2]', 'prevented');

====

Test system: LN18 and U373 glioma cells
PROTOCOL: Confocal laser scanning microscopy (CLSM) and FACS, staining of cell nuclei
Type: cell-based, human
RUN PARAMETERS: 130 μM, APMA-containing medium, MMP-2 inactive/inhibited
Primed or numbered codes have the meaning given here. Where no end group is shown, it is not given here. The star is where a group is joined. DOTA = O=C(O)CN1CCN(CC(=O)O)CCN(CC(=O)*)CCN(CC(=O)O)CC1; FITC′ = fluorescent dye, fluorescein isothiocyanate
PROPERTY MEASURED: staining of the cell nuclei, MMP-2 inactive

INSERT INTO measurements (substance, meas_value) VALUES
  ('K-(GdDOTA)-GG-K(FITC)-RRRR-G-PLGLA-G-RRRR-K(FITC)-GG-K(GdDOTA) (K(DOTA)GGK(FITC′)RRRRGPLGLAGRRRRK(FITC′)GGK(DOTA)-NH2; also: DOTA groups complexed with Gd (GdDOTA)) [V5A]', 'few stained cell nuclei'),
  ('PKKKRKV-K(FITC)-GG-K(DOTA)-PLGVR-K(DOTA) (PKKKRKVKGGKPLGVRK) [V2]', 'few stained cell nuclei'),
  ('K-(GdDOTA)-G-PLGLA-GG-PKKKRKVRRRR-K(FITC)-GG-K(GdDOTA) (K(DOTA)GPLGLAGGPKKKRKVRRRRK(FITC′)GGK(DOTA)-NH2; also: DOTA groups complexed with Gd (GdDOTA)) [V4A]', 'few stained cell nuclei');

====

Test system: LN18 and U373 glioma cells
PROTOCOL: Confocal laser scanning microscopy (CLSM) and FACS, staining of cell nuclei
Type: cell-based, human
RUN PARAMETERS: 130 μM, APMA-containing medium, MMP-2 inactive/inhibited
Where no end group is shown, it is not given here. The star is where a group is joined. FITC = O=C1OC2(c3ccc(O)cc3Oc3cc(O)ccc32)c2ccc(NC(=S)*)cc21; DOTA = O=C(O)CN1CCN(CC(=O)O)CCN(CC(=O)*)CCN(CC(=O)O)CC1
PROPERTY MEASURED: staining of the cell nuclei, MMP-2 inactive

INSERT INTO measurements (substance, meas_value) VALUES
  ('K(DOTA)-G-PLGLA-GGPKKKRKVRRRR-K(FITC)-GG-K(DOTA) (K(DOTA)GPLGLAGGPKKKRKVRRRRK(FITC)GGK(DOTA)) [V4]', 'few stained cell nuclei'),
  ('PKKKRKV-K(FITC)-GG-K(GdDOTA)-PLGVR-K(GdDOTA) (PKKKRKVKGGKPLGVRK; not fully specified) [V2A]', 'few stained cell nuclei');

src = patent US20100267928A1
